PROTOCOL: qHTS assay for small molecule agonists of the p53 signaling pathway (AID 651631); also: nearly all actives have a fitted effect of over 15% in size
CONDITION DESCRIPTION: HCT-116 p53RE-bla reporter, beta-lactamase FRET ratio, 16 h; series mostly up to 73.3 µM
Inconclusive results are not listed. Activity calls are given as the source filed them. Calls follow the shape of the full dose curve.
One label from this list, please: active, inactive

CO[Si](CCCNc1ccccc1)(OC)OC = inactive
N=C1N=C(N)c2ccccc21 = active

What did the test return for CN1CCN(CCC(=O)N2c3ccccc3Sc3ccc(C(F)(F)F)cc32)CC1 ?
inactive

For CC(C)(C)c1ccc(C(=O)O)cc1 , which call appears in the assay record?
inactive

Call for entry CCCCCCCCn1sc(Cl)c(Cl)c1=O :
active

Could you check what this test reported for CCN(C(=O)c1cc(C)cc(OC[C@H](C)Nc2ccncc2)c1)C(C)C ?
inactive

Please state the recorded outcome for this compound: O=C1Cc2cc(CCN3CCN(c4nsc5ccccc45)CC3)c(Cl)cc2N1
inactive

Returns: the outcome recorded for CC(C)=CCOc1ccc(/C=C/C(=O)c2ccc(OCC=C(C)C)cc2OCC(=O)O)cc1 in this assay.
active

GET /call?item= CC(C)(C)C(=O)OCOC(=O)[C@@H]1N2C(=O)[C@@H](NC(=O)[C@H](N)c3ccccc3)[C@H]2SC1(C)C returns the recorded outcome of this test.
inactive

Assay result, entry CCC(C)(C)C1CCCCC1OC(C)=O (centres undefined) — outcome?
inactive

Hi team, can someone confirm the assay call for O=c1[nH]cnc2nc[nH]c12 ?
inactive

====

PROTOCOL: qHTS assay to identify small molecule agonists of the peroxisome proliferator-activated receptor delta (PPARd) signaling pathway - cell viability counter screen (AID 743211); also: nearly all actives have a fitted effect of over 55% in size
CONDITION DESCRIPTION: PPARd-bla HEK293H viability, CellTiter-Glo luminescence, 17 h; series mostly up to 62.6 µM
Results filed as inconclusive are left out. Calls of active or inactive are those of the source. The call rests on the fitted dose curve; in most records, active means well fitted cell-killing curve with a large enough effect in the repeat runs; inconclusive means weak or mixed curves; inactive means no such curve, though single readings can be large or run the other way.
Parameter call: string, one of active, inactive

Please review the entries below; each comes with its answer.
CCCCCCCCCCCCCC[P+](CCCC)(CCCC)CCCC (tested in a mixture with another compound) = inactive
CC(=O)N1CCN(c2ccc(OC[C@H]3CO[C@](Cn4ccnc4)(c4ccc(Cl)cc4Cl)O3)cc2)CC1 = active
CCCCCCCCOc1ccccc1C(=O)Nc1ccc(C(=O)OCC[N+](C)(CC)CC)cc1 = active
Nc1c(Cl)cc(Cl)cc1Cl = inactive
CCCCCCCCNC(C)C(O)c1ccc(SC(C)C)cc1 (stereo not given) = active
C1CCCC1 = inactive
O=C(Oc1ccccc1)c1ccccc1C(=O)Oc1ccccc1 = inactive
O=C1C=CC(=O)N1 = active
Fc1ccc([C@@H]2CCNC[C@H]2COc2ccc3c(c2)OCO3)cc1 = active
c1ccc(CSCc2ccccc2)cc1 = inactive

Assay result, entry CC(=O)S[C@@H]1CC2=CC(=O)CC[C@]2(C)[C@H]2CC[C@@]3(C)[C@@H](CC[C@@]34CCC(=O)O4)[C@H]12 — outcome?
inactive

Which outcome was entered for the compound CCc1cc(Cc2cc(CC)c(N)c(CC)c2)cc(CC)c1N in this test?
active

GET /call?item= Oc1cccc(-c2c3nc(c(-c4cccc(O)c4)c4ccc([nH]4)c(-c4cccc(O)c4)c4nc(c(-c5cccc(O)c5)c5ccc2[nH]5)CC4)C=C3)c1 returns the recorded outcome of this test.
active

Would you mind telling me which call this test gave CCCC(=O)OC[C@@H](OC(=O)CCC)[C@@H](OC(=O)CCC)[C@H](Cn1c2nc(=O)[nH]c(=O)c-2nc2cc(C)c(C)cc21)OC(=O)CCC ?
inactive

Kindly provide the recorded test outcome for the following compound: CCN(CC)CCCC(C)Nc1c2ccc(Cl)cc2nc2ccc(OC)cc12 (stereo not given)
active

What did this assay record as the result for CC(C)(C)CC(C)(C)c1ccc(O)c(Cc2ccc(Cl)cc2Cl)c1 ?
active

Which outcome was entered for the compound Clc1ccccc1C(c1ccccc1)(c1ccccc1)n1ccnc1 in this test?
active

Tell me the assay call for C=C(C)C(=O)OCC(O)COc1ccc(C(C)(C)c2ccc(OCC(O)COC(=O)C(=C)C)cc2)cc1 (stereo not given) please.
active

Entry CC1=C(C(=O)OC(C)C)C(c2cccc([N+](=O)[O-])c2)C(C(=O)OC2CN(C(c3ccccc3)c3ccccc3)C2)=C(N)N1 (stereo not given) : call = ?
active

Status in this test for Oc1cccc2cc3cccc(O)c3c(O)c12 ?
inactive

Identify the outcome logged in this assay for the compound shown: CCCC(c1cc(C(C)(C)C)c(O)cc1C)c1cc(C(C)(C)C)c(O)cc1C
active

What is the recorded call for this compound in the test? CC(C)(C)c1ccc(C(=O)O)cc1
inactive

Lab log entry: CC(C)(C)NC(=O)[C@@H]1C[C@@H]2CCCC[C@@H]2CN1C[C@@H](O)[C@H](Cc1ccccc1)NC(=O)[C@H](CC(N)=O)NC(=O)c1ccc2ccccc2n1 — outcome as called in the assay?
active

What call does the record list for OCCCCCCCCCCCCBr ?
inactive

Given CCC(CN)=C(c1ccccc1)c1ccccc1 , state the outcome it received in this test.
active

Would you mind telling me which call this test gave Cc1cccc(N(C)C(=S)Oc2ccc3c(c2)C2CCC3C2)c1 (stereo not given) ?
inactive

For C[n+]1ccn(Cc2ccccc2)c1 , what call appears in the results of this test?
inactive

====

PROTOCOL: qHTS assay to identify small molecule HDAC inhibitors - cell viability counter screen (AID 1259365); also: % is scaled to controls: 0 for no effect and ±100 for the full control effect; nearly all actives have a fitted effect of over 50% in size
CONDITION DESCRIPTION: HCT-116 viability, CellTiter-Glo ATP luminescence, 2 h; series mostly up to 92.4 µM
Activity calls are given as the source filed them. The call rests on the fitted dose curve; in most records, active means well fitted cell-killing curve with a large enough effect in the repeat runs; inconclusive means weak or mixed curves, or effect the other way; inactive means flat fitted curve, though single readings scatter.
The reply should name one outcome from true (active), false (inactive)

// below: answered molecules
O=C(O)c1ccc(Cl)c(Cl)c1 = false
Cc1cccc(S(=O)(=O)O)c1C = false
Nc1cc(C(F)(F)F)ccc1S = false
Cc1c(C)c2c(c(C)c1O)CCC(C)(COc1ccc(CC3SC(=O)NC3=O)cc1)O2 (stereo not drawn) = false
CCCCCOC(=O)CCCC = false
CC(C)(C)NC(=O)[C@@H]1C[C@@H]2CCCC[C@@H]2CN1C[C@@H](O)[C@H](Cc1ccccc1)NC(=O)[C@H](CC(N)=O)NC(=O)c1ccc2ccccc2n1 = false

With those in mind, consider the next molecule.
Fill in: this test's call for Cc1ccc2oc(CN(Cc3ccccc3)C(=O)Nc3c(F)cc(F)cc3F)c(-c3ccc(Cl)cc3)c2c1 is ___
false

====

MEASURED ON: Thyrotropin-releasing hormone receptor (Homo sapiens)
PROTOCOL: qHTS assay to identify small molecule agonists of the thyrotropin-releasing hormone receptor (TRHR) signaling pathway (AID 1346891);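 also: HEK293 cells expressing TRHR with calcium dye readout; % is scaled to controls: 0 for no effect and ±100 for the full control effect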
CONDITION DESCRIPTION: TRHR-HEK293 calcium fluorescence, agonist mode; series mostly up to 57.6 µM
Calls of active or inactive are those of the source. Calls follow the shape of the full dose curve.
READOUT KIND: activation

Consider the worked cases shown below.
O=S1(=O)CC(Cl)(Cl)C(Cl)(Cl)C1 = inactive
CN1CCC(Nc2ncc3ncnc(Nc4ccc(F)c(Cl)c4)c3n2)CC1 = inactive
Cc1c(C)c2c(c(C)c1O)CCC(C)(COc1ccc(CC3SC(=O)NC3=O)cc1)O2 (centres undefined) = inactive
O=C(OC[C@H]1O[C@@H](OC(=O)c2cc(O)c(O)c(OC(=O)c3cc(O)c(O)c(O)c3)c2)[C@H](OC(=O)c2cc(O)c(O)c(OC(=O)c3cc(O)c(O)c(O)c3)c2)[C@@H](OC(=O)c2cc(O)c(O)c(OC(=O)c3cc(O)c(O)c(O)c3)c2)[C@@H]1OC(=O)c1cc(O)c(O)c(OC(=O)c2cc(O)c(O)c(O)c2)c1)c1cc(O)c(O)c(OC(=O)c2cc(O)c(O)c(O)c2)c1 = 0.113% [at 11.8 µM] (inactive)
CN(C)c1ccc(SC#N)cc1 = inactive

Data point: Cn1cc(C(=O)[C@@H]2CCc3nc[nH]c3C2)c2ccccc21 ; activation = inactive

Note to self: activation recorded for Cc1[nH]cnc1C[C@H]1CCc2c(C)c3ccccc3n2C1=O was inactive

Sure, the documented activation for COc1cc(/C=C/C(=O)O[C@H]2CC[C@]34C[C@]35CC[C@]3(C)[C@@H]([C@H](C)CCC=C(C)C)CC[C@@]3(C)[C@@H]5CC[C@H]4C2(C)C)ccc1O is inactive

Documented activation of O=C1c2c(O)ccc(Nc3ccc(CCO)cc3)c2C(=O)c2c([N+](=O)[O-])ccc(O)c21 : inactive

====

PROTOCOL: A CellTox Green Cytotoxicity Assay to monitor cytotoxicity in HepG2 cells - 8 hour (AID 1224890); also: % is scaled to controls: 0 for no effect and ±100 for the full control effect; nearly all actives have a fitted effect of over 45% in size
CONDITION DESCRIPTION: CellTox Green fluorescence; series mostly up to 76.8 µM
Records with an inconclusive call do not appear. Activity calls are given as the source filed them. Calls follow the shape of the dose curve; as a rule, active = well fitted activation curve with a large enough effect in the repeat runs; inconclusive = weak or mixed curves; inactive = flat fitted curve, though single readings scatter.
In this exercise, the only acceptable responses are active, inactive

Query: recorded result category for Oc1cccc2cc3cccc(O)c3c(O)c12 in this test
inactive

Record request — test call for CCc1cc(Cc2cc(CC)c(N)c(CC)c2)cc(CC)c1N
inactive

Answer briefly: the call reported for Cc1nc(-c2ccc3c(c2)CCN(CCC2CCC(NC(=O)/C=C/c4ccc(F)cc4)CC2)CC3)no1 (stereo unspecified) in this assay.
inactive
